tested on: Panc 05.04 cells (SF3b K700E mutant); test: Cell proliferation and viability, CellTiter-Glo, 72 hours; type: cell-based; settings: Panc 05.04, read-out: CTGlo-ATS GMean GI50 (nM) 72 h PANC0504.1; PANC0504.1 cells, 72 h; geometric mean
Provide the reported GI50 of each item.
Answers are plain numbers, in nM.

Recorded GI50, per entry:
> print(dat)
                              record.smiles  number
1  C/C(=C\c1cc(F)cc(N2CCN(CCO)CC2)c1)[C@H]1OC(=O)C[C@H](O)CC[C@H](C)[C@@H](OC(=O)N2CCOCC2)/C=C/[C@@H]1C    81.1
2  C/C(=C\c1cc(F)cc(N2CCNC2=O)c1)[C@H]1OC(=O)C[C@H](O)CC[C@H](C)[C@@H](OC(=O)N2CCN(C)CC2)/C=C/[C@@H]1C    7.96
3  C/C(=C\c1cc(F)c2nnn(CC3CC3)c2c1)[C@H]1OC(=O)C[C@H](O)CC[C@H](C)[C@@H](OC(=O)N2CCN(C)CC2)/C=C/[C@@H]1C    1.61

Here is the next item to consider.
Q) Given the molecule C/C(=C\c1cc(F)cc(N2CCOC[C@H]2C)c1)[C@H]1OC(=O)C[C@H](O)CC[C@H](C)[C@@H](OC(=O)N2CCN(C)CC2)/C=C/[C@@H]1C , write its reported GI50.
A) 3.69

====

target: SF3b complexes (Homo sapiens, UniProt O75533+Q7RTV0); construct: endogenous in cells; host or cells: Nuclear extracts; A HeLa S3 extract preparation is described for the in vitro splicing assay; assay: Scintillation proximity assay (SPA) with [3H]-labelled pladienolide probe; type: binding; details: SF3B1 (WT); geometric mean; read-out: SPA-ATS GMean IC50 (nM) SF3B1 (WT)
MEASUREMENT_TYPE: IC50
Express your answer as a number followed by its unit.

MOLECULE	RESULT
C/C(=C\c1cc(F)cc(N2CCOCC2)c1)C1OC(=O)C[C@H](O)CC[C@H](C)[C@@H](OC(=O)N2CCN(C3CCOCC3)CC2)/C=C/[C@@H]1C (stereo partly drawn) [Compound 36]	3.49 nM
C/C(=C\c1cccc(S(=O)(=O)NC(C)C)c1)[C@H]1OC(=O)CC(O)CCC(C)[C@@H](OC(=O)N2CCN(C)CC2)/C=C/[C@@H]1C (stereo in doubt) [Compound 209]	4.78 nM

Here is the next item to consider.
Q) Given the molecule C/C(=C\c1cc(F)cc(N2CCN(C(=O)Cn3cccn3)CC2)c1)C1OC(=O)CC(O)CC[C@H](C)[C@@H](OC(=O)NC(C)CO)/C=C/C1C (stereo in doubt) [Compound 229] , write its reported IC50.
A) 17.1 nM

====

system: Panc 05.04 cells (SF3b K700E mutant); experiment: Cell proliferation and viability, CellTiter-Glo, 72 hours; type: cell-based; conditions: Panc 05.04, read-out: CTGlo-ATS GMean GI50 (nM) 72 h PANC0504.1; PANC0504.1 cells, 72 h; geometric mean
MEASUREMENT_TYPE: GI50 (nM)
Answers are plain numbers, in nM.

RECORD_SMILES	MEASUREMENT_TYPE	NUMBER
C/C(=C\c1cc(F)cc(N2CCN(CC(=O)C3CC3)CC2)c1)[C@H]1OC(=O)C[C@H](O)CC[C@H](C)[C@@H](OC(=O)N2CCN(C)CC2)/C=C/[C@@H]1C	GI50	5.61

I need GI50 for every entry listed below, if you could help.
1. C/C(=C\c1cc(F)cc(N(C)C2CCS(=O)(=O)CC2)c1)[C@H]1OC(=O)C[C@H](O)CC[C@H](C)[C@@H](OC(=O)N2CCN(C)CC2)/C=C/[C@@H]1C
2. CC[C@H](O)[C@@H](C)C(=O)N1CCN(c2cc(F)cc(/C=C(\C)[C@H]3OC(=O)C[C@H](O)CC[C@H](C)[C@@H](OC(=O)N4CCN(C)CC4)/C=C/[C@@H]3C)c2)CC1
3. C/C(=C\c1cccc(N(C)C2CCOCC2)c1)[C@H]1OC(=O)C[C@H](O)CC[C@H](C)[C@@H](OC(=O)N2CCN(C)CC2)/C=C/[C@@H]1C
4. C/C(=C\c1cc(F)cc(N2CCOCC2)c1)[C@H]1OC(=O)C[C@H](O)CC[C@H](C)[C@@H](OC(=O)N2CCN(CC(F)(F)F)CC2)/C=C/[C@@H]1C

A)
1: 17.9; 2: 5.68; 3: 23.2; 4: 433
